- method.description: Pharmacokinetic evaluation in plasma after IV and PO administration
- Type: in vivo
- study.conditions: mouse, female Balb/c mice, IV 2 mg/kg, read-out: Vdss
Let's look at some compounds and their measured Vd.
For clarity, give the value followed by its unit.

CNC(=O)c1cccc(-c2ccc3c(N4CCOC[C@@H]4C)nc(N4CCOC[C@@H]4C)nc3n2)c1 [AZD2014, reference compound]	0.599 L/kg

The reported value for C[C@H]1COCCN1c1nc(N2CCOC3(CC3)C2)nc2nc(-c3cccc(C(N)=O)c3)ccc12 [Embodiment 51] in terms of Vd is 0.739 L/kg

Data point: CNC(=O)c1cccc(-c2ccc3c(N4CCOC[C@@H]4C)nc(N4CCOC5(CCC5)C4)nc3n2)c1 [Embodiment 23] ; Vd = 0.414 L/kg

Short answer for CNC(=O)c1cccc(-c2ccc3c(N4CCOC[C@@H]4C)nc(N4CCOC5(CC5)C4)nc3n2)c1 [Embodiment 1] : Vd was 0.793 L/kg
